Reported inhibition values follow for various compounds
- measured_on: Genome polyprotein (Dengue virus type 2 (strain 16681-PDK53))
- assay_info: flavivirus cap methylation enzyme inhibition – biochemical, confirmation dose response, primary screen (AID 588689)
- test_conditions: Dengue-2 NS5 methyltransferase capping enzyme assay, at 25 µM, active compounds read high
Among all 340,000 compounds or so, about 1,000 (0.29%) were called active. The list is a sample of the results. Measured potencies and affinities stand elsewhere.

| compound | inhibition / % |
| --- | --- |
| COC(=O)c1cc(OC)nc2ccc(Br)cc12 | 4.64 |
| O=C(Nc1ccccc1Cl)c1ccccc1 | 1.49 |
| CN1CCN(NC(=O)CSc2ccc(Cl)cc2Cl)CC1 | -10.7 |
| S=C(Nc1ccc(Nc2ccccc2)cc1)Nc1ccccn1 | -0.82 |
| Cc1cc(C)cc(NC(=S)NC2CC3CCCC(C2)N3C2CC2)c1 (stereo not given) | -10.8 |
| CC1=NN(c2ccc(C)cc2C)C(=O)C1C(c1ccccc1O)C1C(=O)N(c2ccc(C)cc2C)N=C1C (stereo not given) | 15.6 |
| Cc1ccc(N2C(=O)c3ccccc3C2(O)c2ccccc2)cc1 (stereo not given) | -0.39 |
| CC1(C)CC(=O)C(N=Nc2ccc(OC(F)F)cc2)=C(O)C1 | 10.8 |
| CC(C)CC(=O)Nc1ccc(C(=O)COC(=O)C2CCC2)cc1 | -0.65 |
| COC(=O)C1=C(C(=O)OC)C(c2cc([N+](=O)[O-])ccc2O)c2sc(=O)[nH]c2S1 (stereo not given) | -1.58 |
| COC(=O)C1=C(C(=O)OC)C(c2ccc(OC)c(OC)c2)c2sc(=O)[nH]c2S1 (stereo not given) | 18 |
| CC1(C)CC(=O)C(C(C#Cc2ccccc2)C2=C(O)CC(C)(C)CC2=O)=C(O)C1 | -2.82 |
| CC(=NCCCNC1CCCCC1)C1=C(O)CC(C)(C)CC1=O | 10.2 |
| COc1cccc(C(C2=C(O)CC(C)(C)CC2=O)C2C(=O)CC(C)(C)CC2=O)c1 (stereo not given) | -1.95 |
| CC1(C)CC(=O)C(Br)=C(O)C1 | -10.3 |

###

Reported inhibition values follow for various compounds
- measured_on: Genome polyprotein (Dengue virus type 2 (strain 16681-PDK53)) (UniProt P29991)
- assay_info: flavivirus cap methylation enzyme inhibition – biochemical, confirmation dose response, primary screen (AID 588689)
- test_conditions: Dengue-2 NS5 methyltransferase capping enzyme assay, at 25 µM, active compounds read high
Screen size: about 340,000 compounds; about 1,000 (0.29%) were called active. A selection follows. Measured potencies and affinities stand elsewhere.

| compound | measured_on | inhibition, % |
| --- | --- | --- |
| N#C/C(=C\c1ccccc1OCc1ccc(C(=O)O)cc1)C(=O)Nc1ccc(O)cc1 | Genome polyprotein (Dengue virus type 2 (strain 16681-PDK53)) (UniProt P29991) | 27 |
| CC(=O)N1c2ccccc2NC2=C(C(=O)CCC2)C1c1ccco1 (configuration not stated) | Genome polyprotein (Dengue virus type 2 (strain 16681-PDK53)) (UniProt P29991) | 9.11 |
| COC(CNC(=O)c1cccnc1)OC | Genome polyprotein (Dengue virus type 2 (strain 16681-PDK53)) (UniProt P29991) | -7.01 |
| COc1ccc(NC(=O)/C(C#N)=C\c2ccc(OCc3ccc(C(=O)O)cc3)c(OC)c2)cc1 | Genome polyprotein (Dengue virus type 2 (strain 16681-PDK53)) (UniProt P29991) | -8.98 |
| CCOC(=O)C1CCCN(S(=O)(=O)c2cc(OCC(N)=O)c(C)cc2Cl)C1 (configuration not stated) | Genome polyprotein (Dengue virus type 2 (strain 16681-PDK53)) (UniProt P29991) | -5.68 |
| O=C(Nc1ccccc1[N+](=O)[O-])c1cccc(N2C(=O)CCC2=O)c1 | Genome polyprotein (Dengue virus type 2 (strain 16681-PDK53)) (UniProt P29991) | -7.81 |
| Cc1ccc(NC(=O)CCC(=O)c2ccccc2)cc1 | Genome polyprotein (Dengue virus type 2 (strain 16681-PDK53)) (UniProt P29991) | -17.5 |
